In this section we review reported protein stability index values for a set of sequences.
ASSAY_PROCEDURE: protein stability index of a GFP-peptide fusion (yeast GPS) (PSI 1-4); higher = more stable; sorted into four equal gates, so the index is relative within each strain
CONDITION_CONTEXT: ubr1∆
The reply should be a number, written without any unit.

[Q] Indicate its recorded protein stability index; the sequence in question is SGVPRLKEILNVAKNMK [RPO21]
[A] 1.4

[Q] Recall and state the measured protein stability index for EFVHKYLGEGPRMVRDV [RPT3] .
[A] 3.17

[Q] Using the record for STYKHDRGIANIRNNIE [SRB4] , state its measured protein stability index.
[A] 3.49

[Q] # return recorded protein stability index for entry QTGTRRNSKLLNTKSIQ [MCD1]
[A] 3.2

###

ASSAY_PROCEDURE: protein stability index of a GFP-peptide fusion (yeast GPS) (PSI 1-4); higher = more stable; sorted into four equal gates, so the index is relative within each strain
CONDITION_CONTEXT: san1∆
VALUE_KIND: protein stability index
Note: the reply should be a number with no unit written.

GSNQQSSTGGGLFGNKP [YGR119C/NUP57]: 3.23
AAIWTLCKTKMVCETDV [RPO21]: 1.44
GNNTELTKTTVNISAVD [YCG1]: 3.02
YENIPIYATFLNESDCL [YDL116W/NUP84]: 2.15
DKDAFIPKLKPAPINSL [SNU114]: 2.83
RNQEKKMEKKKSSSLSL [SNM1]: 2.68
KDAEDETSSDGSKSDGS [RPN1]: 3.64
QTDAIKSDEAKWKPVLS [RPN5]: 3.27
AQLDGRIGVLQARMMQQ [NSL1]: 2.46
EVTEGQAEATEWAEENA [RPS0B]: 2.44

[Q] // Input: SLGSSSTTASGTTATGT [YGR119C/NUP57] . Output its protein stability index only.
[A] 3.08

[Q] Look up and state reported protein stability index for SLYTSREPRVVSALQML [PUP1]
[A] 3.03

[Q] Give the reported value of protein stability index for this record: SIGYETELKKITDKTIK [IRR1]
[A] 2.99

###

ASSAY_PROCEDURE: protein stability index of a GFP-peptide fusion (yeast GPS) (PSI 1-4); higher = more stable; sorted into four equal gates, so the index is relative within each strain
CONDITION_CONTEXT: ubr1∆
VALUE_KIND: protein stability index
Output spec: single numeric token, no unit.

VEKRIGKIVSQRGKWNL [RGR1]: 2.71

[Q] Identify measured protein stability index associated with QPDANKKKRSRTSATRE [ISW2]
[A] 3.16

[Q] Determine its reported protein stability index: TKRSIAIVFEEIKNWIS [YMR129W/POM152]
[A] 1.91

[Q] Dear colleague, please send me the reported protein stability index for DDTKETVYISSIALLKM [RPN11] when you can.
[A] 2.93

[Q] Entry DQKIWPYLEKYPEYDQI [SSN3] needs its protein stability index filled in; supply it.
[A] 3.43

[Q] Identify the reported protein stability index for the following entry. GRRKTWKRQNTLSLWRY [RPL15A]
[A] 3.37

###

// reported protein stability index for each item listed
ASSAY_PROCEDURE: protein stability index of a GFP-peptide fusion (yeast GPS) (PSI 1-4); higher = more stable; sorted into four equal gates, so the index is relative within each strain
CONDITION_CONTEXT: doa10∆
// no unit, no text: just the number

GEILLPDIADIPRTFRT [SNF5]: 2.82
NRAMEYDALLSINVHSN [RET1]: 2.58
RALQENGIIMNGTLIGC [YMR153W/NUP53]: 1.88
WGIPLIKELRSKGYPIQ [FAS1]: 2.38
VEILFEAGASAELDDCR [RPO21]: 2.94

[Q] Annotate the sequence FGAKSDENKAGATSKPA [YJL041W/NSP1] with its measured protein stability index.
[A] 3.25

[Q] Assign protein stability index to the following record: EVTKSSHVENLEEKLYQ [YIL149C/MLP2]
[A] 2.76

###

ASSAY_PROCEDURE: protein stability index of a GFP-peptide fusion (yeast GPS) (PSI 1-4); higher = more stable; sorted into four equal gates, so the index is relative within each strain
CONDITION_CONTEXT: doa10∆
Answer 0.0 if protein stability index is under 3, and 1.0 if it is 3 or more.

Reference set, count: 10
IRNIVEAAAVRDLSEAS [RPS26A]: 0.0
EPIDQNTGIVSSTTGMS [RPT3]: 1.0
RQYVGQLAPSSVDPQSS [DIS3]: 0.0
NMGMNNMNNGGKELDSL [PGD1]: 1.0
QTYINQELGFCELLKLT [SSN2]: 0.0
VLTQLTALALKYLIKYN [CSI1]: 0.0
DKDAFIPKLKPAPINSL [SNU114]: 0.0
LSFINPKTGKVERSEAI [SEC65]: 1.0
QPDANKKKRSRTSATRE [ISW2]: 1.0
GEFSGKNFSPTKRVEKP [RRP6]: 0.0

[Q] Item TQLDKLRPRKDSKDGTT [SMB1] with protein stability index of 3 or above?
[A] 0.0

[Q] Does the sequence PTGGKAKLSEGTSFRRK [RPS27A] have recorded protein stability index that is 3 or more?
[A] 1.0

[Q] Dear colleague, could you confirm whether KGSRQCRVCSSHTGLIR [RPS29A] has protein stability index at or above 3?
[A] 0.0

[Q] Would you say LRSDIPCLSRSCTKCPQ [DIS3] shows protein stability index at minimum 3?
[A] 0.0

[Q] Please indicate if the recorded protein stability index for KQLQLAMHNSKAASSTR [POP1] meets or exceeds 3.
[A] 0.0

[Q] Given LTSDLVYFGDENKVMLP [RRI2] , state whether its protein stability index is at least 3.
[A] 1.0

[Q] Record AQKNTQSYGGRPYGVGL [PRE5] ; criterion: protein stability index no lower than 3. Met?
[A] 1.0

###

ASSAY_PROCEDURE: protein stability index of a GFP-peptide fusion (yeast GPS) (PSI 1-4); higher = more stable; sorted into four equal gates, so the index is relative within each strain
CONDITION_CONTEXT: doa10∆
Please map values of protein stability index to classes as shown: bucket A: < 2; bucket B: ≥ 2 and < 3; bucket C: ≥ 3

Would you please look over these solved cases?
ILDIVINNPVNLTIHFG [FAS1]: bucket B
LFGSPPFILEYDLMAPN [YMR129W/POM152]: bucket B
ADGSSYMEQGNNKIITL [SKI6]: bucket B
DGIHYILNHIGQLTGIY [PRP8]: bucket A

[Q] Bin? SGEKIDFLLSDWNKRFS [BRR2]
[A] bucket B

[Q] Categorize the following entry: IGSQRGRRLSMLASQAN [DSN1]
[A] bucket A

###

ASSAY_PROCEDURE: protein stability index of a GFP-peptide fusion (yeast GPS) (PSI 1-4); higher = more stable; sorted into four equal gates, so the index is relative within each strain
CONDITION_CONTEXT: doa10∆
VALUE_KIND: protein stability index
I'd appreciate a reply containing only the number, no unit.

[Q] Please give measured protein stability index of the following entry: YKCTAAMEKYLLSKSKI [MTW1]
[A] 2.21

[Q] Assign protein stability index to the following record: YVDFVPMYKELWINYIK [POP4]
[A] 2.33

[Q] Indicate its recorded protein stability index; the sequence in question is SPPCYIIDHIPGHSLLL [SNF5]
[A] 2.14

[Q] Identify the reported protein stability index for the following entry. LKEPVEDIIKRTSPIDN [NUT2]
[A] 2.97

###

ASSAY_PROCEDURE: protein stability index of a GFP-peptide fusion (yeast GPS) (PSI 1-4); higher = more stable; sorted into four equal gates, so the index is relative within each strain
CONDITION_CONTEXT: pdr5∆
protein stability index: recorded values

# annotated cases, reported protein stability index shown
GAHLLEFQPSGNVTELY [PRE5]: 2.99
SQTTLVQFGLNEETFTV [ARP9]: 2.92
YTEFIDSFIEKIIPKDI [ITC1]: 2.11
EDEDEDLFGDSNKSNST [SSN2]: 2.82
VLLDARDIEKITSLYAL [CDC53]: 1.99
YPLWVMAKQLIRLANES [CSN12]: 1.41
VVGQLFQIDNDNIRYAT [SMC2]: 2.67
NVRMDTMANILYYPQKP [RPB2]: 3.23

[Q] Determine its reported protein stability index: QNKEIKAERVEDQKVVD [RPL6A]
[A] 3.44

[Q] Give the measured protein stability index for LSQLCAVPLQIVSPQSN [RPO21]
[A] 1.91

[Q] Give me measured protein stability index, please, for this sequence: AQAQAQAQAQVYAQQST [PGD1]
[A] 3.05

[Q] Respond only with protein stability index recorded for RVHRRNNRWAENNYKKR [RPS23A]
[A] 3.55

[Q] Write down protein stability index measured for item EEGINKFKKEKFDIIIV [SRP54]
[A] 2.61

[Q] Quickly give me recorded protein stability index for VISTIENVLFYIGRVNK [COB]
[A] 1.89

[Q] Give the reported protein stability index for this sequence. DSLSGAVIAAIMQEAGL [RPT3]
[A] 1.14

[Q] Tell me protein stability index reported for VRTHMRNMIIVPEMIGS [RPS15]
[A] 1.47

[Q] Determine from records and report protein stability index for LSIAFENGDYAACEKLL [RPN12]
[A] 3

[Q] Give reported protein stability index value for LPFYAILRSIPDKLLGV [COB]
[A] 2.07

[Q] Tell us which protein stability index value is on record for LPLWHLLNRIPRMYHIG [POP1]
[A] 2.97

[Q] Provide one value: measured protein stability index of YGEYPPTKLLVSEVAKI [PRE8]
[A] 2.81

[Q] Indicate its recorded protein stability index; the sequence in question is ELISLRKILESSNIVNE [YIL149C/MLP2]
[A] 2.53
